Values were extracted from patent US7427625B2.

# measurement.target: Aurora-A (Mus musculus, UniProt P97477)
# Construct: followed by the full length protein encoding the murine Aurora-A; polyhistidine (N); made in house; host or cells: sf9 insect cells
# Sequence (P97477 whole entry): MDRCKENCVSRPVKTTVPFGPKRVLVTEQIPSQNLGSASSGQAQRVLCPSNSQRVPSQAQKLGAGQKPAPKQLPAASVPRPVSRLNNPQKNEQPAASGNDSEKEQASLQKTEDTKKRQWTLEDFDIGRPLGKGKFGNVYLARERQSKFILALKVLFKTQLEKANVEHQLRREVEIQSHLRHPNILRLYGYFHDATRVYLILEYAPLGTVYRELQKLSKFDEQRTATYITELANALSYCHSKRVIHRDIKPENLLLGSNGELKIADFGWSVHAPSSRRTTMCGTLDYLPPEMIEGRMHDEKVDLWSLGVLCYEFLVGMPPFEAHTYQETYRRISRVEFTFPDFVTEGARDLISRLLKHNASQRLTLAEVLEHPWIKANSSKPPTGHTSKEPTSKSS
# protocol: Aurora-A Screening Assay
# Assay type: biochemical, murine
# run.conditions: test concentration of 1 μM; read-out: Aurora-A percent inhibition
quantity: inhibition at 1 µM (%)

molecule: CN(C)c1cc(NC(=O)c2sc3ncc(C#N)c4c3c2NC(=O)N4c2c(Cl)ccc3c2OCO3)ccc1CN1CCOCC1
reading: 16

I = N#Cc1cnc2sc(C(=O)Nc3cccnc3)c3c2c1N(c1c(Cl)ccc2c1OCO2)C(=O)N3
II = N#Cc1cnc2sc(C(=O)N3CCCC(CO)C3)c3c2c1N(c1c(Cl)ccc2c1OCO2)C(=O)N3 (stereo not shown)
III = CC1CCN(Cc2ccc(NC(=O)c3sc4ncc(C#N)c5c4c3NC(=O)N5c3c(Cl)ccc4c3OCO4)cc2)CC1
Asked: Please give the order of these molecules when sorted by inhibition at 1 µM, largest value leading. Enter labels, ranked according to the request.
Given back: I, III, II
(I: 21%, III: 9%, II: 3%)
